Quick list: log10(EC50) per entry.
assayed-system: human GcgR (Homo sapiens)
Sequence (P47871 26-477): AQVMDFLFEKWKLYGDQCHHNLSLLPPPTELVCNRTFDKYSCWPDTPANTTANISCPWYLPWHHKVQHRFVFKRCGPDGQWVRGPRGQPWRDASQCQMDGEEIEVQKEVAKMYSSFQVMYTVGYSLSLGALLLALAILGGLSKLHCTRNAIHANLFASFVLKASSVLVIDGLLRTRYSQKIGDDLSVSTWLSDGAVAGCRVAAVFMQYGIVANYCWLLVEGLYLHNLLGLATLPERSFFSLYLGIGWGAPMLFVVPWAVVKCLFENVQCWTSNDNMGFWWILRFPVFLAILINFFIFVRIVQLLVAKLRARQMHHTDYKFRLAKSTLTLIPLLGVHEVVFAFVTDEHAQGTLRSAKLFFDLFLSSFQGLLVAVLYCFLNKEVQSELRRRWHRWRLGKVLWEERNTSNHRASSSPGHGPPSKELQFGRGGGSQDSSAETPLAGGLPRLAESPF
assay-name: Functional cAMP activity in the presence of 1% HSA
Format: cell-based
cond: read-out: cAMP Rel EC50, hGcgR
Starred links: 1 amine or outer side, 2 acyl side, 3 side chain; linkers in the order of their positions; H or OH if unused. Non-standard residues stand in square brackets, D forms with d. Groups on a side chain read outwards from the residue. No end group written: not given here. *: point of attachment. C20 diacid = O=C(O)CCCCCCCCCCCCCCCCCCC(=O)*; C18 diacid = O=C(O)CCCCCCCCCCCCCCCCC(=O)*; αMePhe(2-F) = C[C@](N)(Cc1ccccc1F)C(=O)O; γGlu = O=C(O)[C@H](CCC(=O)[*:2])N[*:1]; αMe4Pal = C[C@](N)(Cc1ccncc1)C(=O)O; αMeY = C[C@](N)(Cc1ccc(O)cc1)C(=O)O; 4Pal = N[C@@H](Cc1ccncc1)C(=O)O; αMeL = CC(C)C[C@](C)(N)C(=O)O; αMeS = C[C@](N)(CO)C(=O)O; Orn = NCCC[C@H](N)C(=O)O; AEEA = NCCOCCOCC(=O)O; Aib = CC(C)(N)C(=O)O
Scale: decimal log of EC50, EC50 in nM.

Example entries and their recorded answers appear below.
H-Y[Aib]QGTFTSDYSK[αMeL]LDKK([AEEA-γGlu-C20 diacid])AQQAFIQWLIEGGPSSGEPPPSEG-NH2 [Example 314] ... 3.01
H-Y[Aib]QGTFTSD[4Pal]S[Orn][αMeL]LD[Orn]K([Glu-γGlu-C18 diacid])AQ[αMe4Pal]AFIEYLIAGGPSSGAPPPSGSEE-NH2 [Example 1061] ... 3.46
H-Y[Aib]QGT[αMePhe(2-F)]TSD[4Pal]SI[αMeL]LD[Orn]K([γGlu-γGlu-C18 diacid])AQ[αMe4Pal]EFI[dE][αMeY]LAEGGPSSGAPPPSGS-NH2 [Example 646] ... 3.10

## Input Request the reported log10(EC50) associated with H-Y[Aib]QGT[αMePhe(2-F)]TSD[4Pal]SI[αMeL]LD[Orn]K([AEEA-γGlu-C18 diacid])AQ[Aib][Orn]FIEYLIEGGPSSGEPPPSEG-NH2 [Example 489]
## Output 2.72

## Input Record request: log10(EC50) value, item Y[Aib]QGT[αMePhe(2-F)]TSDYSILLDKQAAK([AEEA-γGlu-C20 diacid])EFIEYLIEGGPSSGAPPPSEG-NH2 [Example 340]
## Output 2.81

## Input Form field: reported log10(EC50) of H-Y[Aib]QGT[αMePhe(2-F)]TSD[4Pal][αMeS]I[αMeL]LD[Orn]K([AEEA-γGlu-C18 diacid])AQ[αMe4Pal]EFI[dE][αMeY]LIEGGPSSGEPPPTGE-NH2 [Example 1143]
## Output 2.26
